Tested on: P12-Ichikawa
Assay: cell viability relative to DMSO control; higher = less cytotoxic
Details: RPMI 5 mM glucose + 10% FBS; 48 h; 0.000781 µM
VALUE KIND: cell viability (%)

1) COC(=O)CCC1=C(C)C2=CC3=NC(=CC4=C(C)C(=C([NH]4)C=C\5N=C(C=C1[NH]2)\C(=C5C)CCC(O)=O)C=C)\C6=C\C=C(/[C@@H](C(=O)OC)[C@@]36C)C(=O)OC
93.3
2) CC[C@H]1OC(=O)[C@H](C)[C@@H](O[C@H]2C[C@@](C)(OC)[C@@H](O)[C@H](C)O2)[C@H](C)[C@@H](O[C@@H]2O[C@H](C)C[C@H](N(C)C)[C@H]2O)[C@](C)(O)C[C@@H](C)/C(=N\OCOCCOC)[C@H](C)[C@@H](O)[C@]1(C)O
81.3
3) CCN(CC)CCCC(C)Nc1ccnc2cc(Cl)ccc12 (stereo not drawn)
105
4) CN(C)CCc1c[nH]c2ccc(Cn3cncn3)cc12
92
5) Cc1noc(N[S+](=O)([O-])c2ccc(N)cc2)c1C
85.2
6) OC1=C(Cl)C=C(N\C2=C(\C(=O)NC2=O)C3=C(C=CC=C3)[N+]([O-])=O)C=C1
98.6
7) c1ccc2c(CN3CCNCC3)cccc2c1
106
8) Nc1cc(N2CCCCC2)nc(N)[n+]1[O-]
125

---

System: NOMO1
Test: cell viability relative to DMSO control; higher = less cytotoxic
Settings: RPMI 5 mM glucose + 10% FBS; 48 h; 1.71 µM
Overview of recorded cell viability for various compounds
VALUE KIND: cell viability (%)

1. CN(C[C@@H]1COCCO1)[S+]([O-])(=O)NC2=CC3=C(C=C2)\C=C/C4=C(C=C(C=N4)C5=C[N](C)N=C5)C3=O
57.1
2. CCC(=O)O[C@@]1(CC[C@H]2[C@@H]3CCC/4=C/C(=O)CC[C@]4(C)[C@H]3CC[C@]12C)C(=O)CO
104
3. CC(C)(C)NCC(O)c1ccc(O)c(CO)c1 (centres undefined)
79.2
4. CCN(CC)CCCC(C)Nc1ccnc2cc(Cl)ccc12 (centres undefined)
92.8
5. CC(C)[C@H](C(=O)Nc1ccc(C(=O)NO)cc1)c1ccccc1
118
6. C[C@@H](Cc1cc2c(c(C(N)=O)c1)N(CCCO)CC2)NCCOc1ccccc1OCC(F)(F)F
105
7. COc1cccc(N(C)C(=S)Oc2ccc3c(c2)CCCC3)n1
88.1
8. CN1CCC(CNc2ccc3ncc(-c4cccc(OC(F)(F)F)c4)n3n2)CC1
85.8
9. CC1(C)CCC(C)(C)c2cc(NC(=O)c3ccc(C(=O)O)cc3)ccc21
101

---

System: P12-Ichikawa
Assay: cell viability relative to DMSO control; higher = less cytotoxic
Details: HPLM + 10% dialyzed FBS; 48 h; 0.0211 µM
VALUE KIND: cell viability (%)

1) COc1cccc(N(C)C(=S)Oc2ccc3c(c2)CCCC3)n1
106
2) Cc1nc2ccc(CN(C)c3ccc(C(=O)N[C@@H](CCC(=O)O)C(=O)O)s3)cc2c(=O)[nH]1
118
3) COc1cc(N2CCC(N3CCN(C)CC3)CC2)ccc1Nc1ncc(Cl)c(Nc2ccccc2[S+](=O)([O-])C(C)C)n1
140
4) NC[C@H](O)c1ccc(O)c(O)c1
103
5) CCOc1cc(C(=O)Nc2ccc(Cl)c(-c3nc4ccccc4[nH]3)c2)cc(OCC)c1OCC
91
6) COC(=O)CCC1=C(C)C2=CC3=NC(=CC4=C(C)C(=C([NH]4)C=C\5N=C(C=C1[NH]2)\C(=C5C)CCC(O)=O)C=C)\C6=C\C=C(/[C@@H](C(=O)OC)[C@@]36C)C(=O)OC
111
7) CCc1nc(N)nc(N)c1-c1ccc(Cl)cc1
98.6
8) NCCOc1cc(C(=O)Nc2cc(OCCN)c3ccccc3n2)nc(C(=O)Nc2cc(OCCN)c3ccccc3n2)c1
12.8
9) CC(=O)OCC(=O)[C@@]1(O)CC[C@H]2[C@@H]3CCC/4=C/C(=O)/C=C\[C@]4(C)[C@H]3[C@@H](O)C[C@]12C
126
10) OC1=C(Cl)C=C(N\C2=C(\C(=O)NC2=O)C3=C(C=CC=C3)[N+]([O-])=O)C=C1
102
11) COc1cc2c(cc1O)CCC1C2CC[C@@]2(C)C1CC[C@@H]2O (stereo partly drawn)
89.9
12) CCN(CC)CCCC(C)Nc1ccnc2cc(Cl)ccc12 (stereo not drawn)
117
13) COc1cc(C[C@@H](CO)[C@H](CO)Cc2ccc(O)c(OC)c2)ccc1O
105
14) Cc1cccc(-c2[nH]c(C(C)(C)C)nc2-c2ccc3nccnc3c2)n1
126
15) O=C(CCCN1CCC(O)(c2ccc(Cl)cc2)CC1)c1ccc(F)cc1
116
16) CC(C)C[C@H](CC(=O)O)C(=O)N[C@@H](Cc1c[nH]c2ccccc12)C(=O)N[C@@H](C)c1ccccc1
108
17) CN(C)CCc1c[nH]c2ccc(Cn3cncn3)cc12
101
18) Nc1nccc(-c2ccc3noc(-c4ccc(Cl)cc4)c3c2)n1
129
